target_or_system: T1, human TL1A extracellular domain with N-terminal HIS and FLAG tag (human, UniProt O95150 72-251)
T1 construct: whole entry named. ~70 kDa fraction purified by gel filtration
T1 sequence: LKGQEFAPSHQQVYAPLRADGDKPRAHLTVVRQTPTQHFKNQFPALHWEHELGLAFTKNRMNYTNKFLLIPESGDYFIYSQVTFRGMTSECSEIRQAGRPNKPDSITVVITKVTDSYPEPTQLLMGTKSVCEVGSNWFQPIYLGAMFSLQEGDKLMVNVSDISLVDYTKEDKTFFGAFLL
assay_info: SPR run 1; purified antibody on Protein A; TL1A 10 ug/mL; timepoint 59
Procedure: 1.5. Antibody expression and antigen binding as determined by SPR. Using a CM5 sensor chip (GE Healthcare) Protein A (Pierce) was coupled to the chip surface using an amine coupling kit (GE Healthcare). Protein A was coupled on flow cell 1 and 2 (or alternatively 3 and 4) using a BIACORE® T200. […] At the end of injection of the supernatant or purified antibody the change in response units was measured. […] The response units were measured prior to the end of the dissociation phase. […]
As shown below, each of these binders has a reported TL1A Binding Level (Early) value.

| binder | TL1A Binding Level (Early), RU |
| --- | --- |
| 320-187 (antibody, human IgG1, name in Kabat numbering, V domains shown, human IgG1, lambda) VH: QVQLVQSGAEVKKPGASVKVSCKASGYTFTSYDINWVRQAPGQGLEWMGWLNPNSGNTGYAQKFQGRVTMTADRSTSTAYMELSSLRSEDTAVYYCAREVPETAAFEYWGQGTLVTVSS VL: QSVLTQPPSVSGAPGQRVTISCTSSSSDIGAGLGVHWYQQLPGTAPKLLIEGYYNRPSGVPDRFSGSKSGTSASLTITGLDPEDEGDYYCQSYDGTLSALFGGGTKLTVLG | 134 |
| 320-184 (antibody, human IgG1, name in Kabat numbering, V domains shown, human IgG1, lambda) VH: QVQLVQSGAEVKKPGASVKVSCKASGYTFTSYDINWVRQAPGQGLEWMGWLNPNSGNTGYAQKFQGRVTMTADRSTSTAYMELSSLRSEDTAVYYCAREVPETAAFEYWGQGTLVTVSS VL: QSVLTQPPSVSGAPGQRVTISCTSSSSDIGAGLGVHWYQQLPGTAPKLLIEGYYNRPSGVPDRFSGSKSGTSASLTITGLAPEDEGDYYCQSYDGTLSALFGGGTKLTVLG | 141 |
| 320-185 (antibody, human IgG1, name in Kabat numbering, V domains shown, human IgG1, lambda) VH: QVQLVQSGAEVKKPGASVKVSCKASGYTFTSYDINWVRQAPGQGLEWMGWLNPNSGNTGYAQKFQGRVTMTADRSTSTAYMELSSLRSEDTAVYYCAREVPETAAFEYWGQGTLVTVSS VL: QSVLTQPPSVSGAPGQRVTISCTSSSSDIGAGLGVHWYQQLPGTAPKLLIEGYYNRPSGVPDRFSGSKSGTSASLTITGLSPEDEGDYYCQSYDGTLSALFGGGTKLTVLG | 137 |
| 320-188 (antibody, human IgG1, name in Kabat numbering, V domains shown, human IgG1, lambda) VH: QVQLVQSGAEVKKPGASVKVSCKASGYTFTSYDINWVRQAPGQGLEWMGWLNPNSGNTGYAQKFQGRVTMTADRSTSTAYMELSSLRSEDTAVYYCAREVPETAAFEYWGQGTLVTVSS VL: QSVLTQPPSVSGAPGQRVTISCTSSSSDIGAGLGVHWYQQLPGTAPKLLIEGYYNRPSGVPDRFSGSKSGTSASLTITGLHPEDEGDYYCQSYDGTLSALFGGGTKLTVLG | 136 |
| 320-191 (antibody, human IgG1, name in Kabat numbering, V domains shown, human IgG1, lambda) VH: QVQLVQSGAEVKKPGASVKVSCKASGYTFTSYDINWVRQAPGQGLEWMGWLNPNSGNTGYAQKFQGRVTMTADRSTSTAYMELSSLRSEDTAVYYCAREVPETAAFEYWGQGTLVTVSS VL: QSVLTQPPSVSGAPGQRVTISCTSSSSDIGAGLGVHWYQQLPGTAPKLLIEGYYNRPSGVPDRFSGSKSGTSASLTITGLYPEDEGDYYCQSYDGTLSALFGGGTKLTVLG | 140 |
